# Assay System: truncated human beta-secretase (residues 1-458, His6-tagged at the C-terminus) (Homo sapiens (Human), UniProt P56817)
# Sequence (P56817 22-458): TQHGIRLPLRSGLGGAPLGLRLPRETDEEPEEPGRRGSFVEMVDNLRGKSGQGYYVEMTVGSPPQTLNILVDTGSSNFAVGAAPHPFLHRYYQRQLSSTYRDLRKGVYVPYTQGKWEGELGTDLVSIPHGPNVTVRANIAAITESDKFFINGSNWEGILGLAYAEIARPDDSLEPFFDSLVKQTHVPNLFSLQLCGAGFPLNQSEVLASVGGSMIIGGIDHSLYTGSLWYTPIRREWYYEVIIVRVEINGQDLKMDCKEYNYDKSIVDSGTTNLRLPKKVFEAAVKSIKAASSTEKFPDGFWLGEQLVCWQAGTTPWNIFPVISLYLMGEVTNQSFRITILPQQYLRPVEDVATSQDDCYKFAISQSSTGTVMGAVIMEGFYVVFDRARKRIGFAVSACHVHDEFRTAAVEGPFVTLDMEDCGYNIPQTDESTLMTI
# Protocol Description: BACE enzyme assay (fluorescence quench assay, Example 434A)
# Type: biochemical
# Measurement Conditions: footnote a: protocols described in Example 434A; read-out: IC50
pIC50: −log10 of the molar value.
Value Type: pIC50

>  <Molecule>
CN1OC2(N=C1N)c1cc(-c3cccc(C#N)c3)ccc1CC21CC=C(F)CC1 (stereo not drawn) [Compound 34]

>  <pIC50>
7.03

$$$$

a. COC1CCC2(CC1)Cc1ccc(-c3ccc4cc[nH]c4c3)cc1C21N=C(N)N(C)O1 (stereo not drawn) [Compound 37]
b. COC1CCC2(CC1)Cc1ccc(-c3cncs3)cc1C21N=C(N)N(C)O1 (stereo not drawn) [Compound 116]
Prompt: Param pair: a , b . Output: the one whose pIC50 is numerically greater. State the label of the item chosen.
Response: b

---

# Assay System: truncated human beta-secretase (residues 1-458, His6-tagged at the C-terminus) (Homo sapiens (Human), UniProt P56817)
# Protocol Description: BACE enzyme assay (fluorescence quench assay, Example 434A)
# Assay type: biochemical
# Measurement Conditions: footnote a: protocols described in Example 434A; read-out: IC50
pIC50: −log10 of the molar value.
Value Type: pIC50

>  <Compound>
COC1CCC2(CC1)Cc1ccc(-c3cc(F)ccc3C)cc1C21N=C(N)N(C)O1 (stereo not drawn)

>  <Value Type>
pIC50

>  <Assay Value>
7.13

$$$$
>  <Compound>
CN1OC2(N=C1N)c1cc(Cl)ccc1CC21CCc2ccccc2CC1 (stereo not drawn)

>  <Value Type>
pIC50

>  <Assay Value>
7.21

$$$$
>  <Compound>
CN1OC2(N=C1N)c1cc(-c3cccc(C#N)c3)ccc1CC21Cc2cccc3cccc(c23)C1 (stereo not drawn)

>  <Value Type>
pIC50

>  <Assay Value>
5.49

$$$$
>  <Compound>
CN1OC2(N=C1N)c1cc(-c3cccc(C#N)c3)ccc1CC21Cc2ccccc2C1 (stereo not drawn)

>  <Value Type>
pIC50

>  <Assay Value>
6.80

$$$$
>  <Compound>
Cc1onc2c1CC1(CC2)Cc2ccc(C#CC3CC3)cc2C12N=C(N)N(C)C2=O (stereo not drawn)

>  <Value Type>
pIC50

>  <Assay Value>
8.55

$$$$

1. CN1OC2(N=C1N)c1cc(-c3cccc(C#N)c3)ccc1CC21C=CC(c2ccccc2)C1 (stereo not drawn)
2. CCOC1CCC2(CC1)Cc1ccc(C#CC3CC3)cc1C21N=C(N)N(C)O1 (stereo not drawn)
3. COC1CCC2(CC1)Cc1ccc(-c3cc(F)cc(Cl)c3)cc1C21N=C(N)N(C)O1 (stereo not drawn)
4. CN1OC2(N=C1N)c1cc(-c3cccc(C#N)c3)ccc1CC21CCOCC1 (stereo not drawn)
Prompt: Arrange the 4 compounds from largest to smallest pIC50. # respond with the labels, arranged in the requested order
Response: 3, 2, 1, 4
(3: 8.59, 2: 7.68, 1: 6.53, 4: 6.33)

1. COC1CCC2(CC1)Cc1ccc(-c3cc(C)cc(C)c3)cc1C21N=C(N)N(C)O1 (stereo not drawn)
2. COC1CCC2(CC1)Cc1ccc(C#CC3CC3)cc1C21N=C(N)N(C)C1=O (stereo not drawn)
3. CO[C@H]1CC2(Cc3ccc(-c4cccc(C#N)c4)cc3C23N=C(N)N(C)O3)C[C@H]1OC (stereo partly drawn) [Compound 57]
Prompt: Put the compounds in ascending order of pIC50. # respond with the labels, arranged in the requested order
Response: 3, 1, 2

P. COC1CCC2(CC1)Cc1ccc(-c3cccc(C#N)c3)cc1C21N=C(N)N(C)O1 (stereo not drawn)
Q. COC1CCC2(CC1)Cc1ccc(C#CC3CCCC3)cc1C21N=C(N)N(C)O1 (stereo not drawn)
Prompt: Form: Entry with minimum pIC50 (choose one): P / Q State the label of the item chosen.
Response: P
(P: 7.58, Q: 8.01)

---

# Assay System: truncated human beta-secretase (residues 1-458, His6-tagged at the C-terminus) (Homo sapiens (Human))
# Protocol Description: BACE enzyme assay (fluorescence quench assay, Example 434A)
# Assay type: biochemical
# Measurement Conditions: footnote a: protocols described in Example 434A; read-out: IC50
Value Type: IC50 (nM)
Give just the numeric value; nM need not be written.

Prompt: Dear colleague, I am looking for the recorded IC50 of the following molecule: CN1OC2(N=C1N)c1cc(Br)ccc1OC21CCc2ccccc2CC1 (stereo not shown)
Response: 138

Prompt: Okay, and COC1CCC2(CC1)Cc1ccc(C#CC(F)(F)F)cc1C21N=C(N)N(C)O1 (stereo not shown) ?
Response: 3.7

Prompt: Okay, and COC1CCC2(CC1)Cc1ccc(-c3ccnnc3)cc1C21N=C(N)N(C)O1 (stereo not shown) ?
Response: 156

Prompt: Okay, and CN1OC2(N=C1N)c1cc(-c3cccc(C#N)c3)ccc1CC21CCc2c(F)cccc2C1 (stereo not shown) ?
Response: 618

Prompt: Okay, and Cc1ccc2c(c1)C1(N=C(N)N(C)O1)C1(CCc3ccccc3CC1)C2 (stereo not shown) ?
Response: 255

Prompt: Okay, and COC1CCC2(CC1)Cc1ccc(Br)cc1C21N=C(N)N(C)O1 (stereo not shown) ?
Response: 137

Prompt: Okay, and CN1OC2(N=C1N)c1cc(-c3cccc(C#N)c3)ccc1CC21CCc2cnncc2CC1 (stereo not shown) ?
Response: 877

Prompt: Okay, and CCOC1CCC2(CC1)Cc1ccc(-c3cccc(C#N)c3)cc1C21N=C(N)N(C)O1 (stereo not shown) ?
Response: 432

Prompt: Okay, and CN1OC2(N=C1N)c1cc(-c3cccc(C#N)c3)ccc1CCC21CCc2ccccc2CC1 (stereo not shown) ?
Response: 5050

Prompt: Okay, and COC1CCC2(CC1)Cc1ccc(-c3cnccn3)cc1C21N=C(N)N(C)O1 (stereo not shown) ?
Response: 23.6
